Source listed as PubChem BioAssay (NCI).

Test system: CAKI-1 renal
test-protocol: NCI tumour cell line growth inhibition, 48 h
measured-parameter: TGI (µM)
API: value field is a number in µM; no unit string.

Find TGI for "Cc1ccc(NC(=O)c2cc(S(=O)(=O)N3C(=O)NC(=O)NS3(=O)=O)c(S)cc2Cl)cc1" on CAKI-1 renal and write it down. 60.9

Please respond with reported TGI (system CAKI-1 renal) for "CCOC(=O)/C=C(\C(=O)OCC)n1ccc(=O)n(Cc2cn(COCCOC(C)=O)nn2)c1=O" . 21.2

* * *

Tested on: COLO 205 colon
test-protocol: NCI tumour cell line growth inhibition, 48 h
Would you kindly list TGI for each of these compounds?

Supply recorded TGI for "C\C(=N/N=C1/C(=C\N(C)C)C(=O)NC(=O)N1C)c1ccc(Cl)cc1" here. > 100 µM

Annotate the compound "CC(NC(=O)N(C)C)NC(=O)N(C)C" with its measured TGI. > 10 µM

Quick one: give measured TGI for "O=C(N[C@@H](C[Se][Se]C[C@H](NC(=O)c1ccc(Br)cc1F)C(=O)O)C(=O)O)c1ccc(Br)cc1F" > 100 µM

Please report TGI for the following compound: "CC(=O)/C(=C/c1ccccc1F)C(=O)c1ccccc1" > 100 µM

State, in one line, measured TGI of "COc1cc2c(cc1OC)-c1cc3ccccc3c(=O)n1CC2" > 100 µM

Complete the entry with TGI for "COc1ccc(OC)c(Cn2cc3c(c2-c2ccccc2)CCc2cnoc2-3)c1" > 100 µM

Consider the compound "Cn1cc(C2=C(c3cn(C4CCN(Cc5ccccn5)CC4)c4ccccc34)C(=O)NC2=O)c2ccccc21" and give its recorded TGI. > 100 µM

Return reported TGI. Input compound: "CCOP(=O)(/C=C\n1ccc(N)nc1=O)OCC" > 100 µM

Item NC(=O)N/N=C1\CC2C3CC4C2C4C13 (centres undefined) : provide TGI > 100 µM
